Target: T1, ZFP SBS#270 (synthetic)
T1 chain: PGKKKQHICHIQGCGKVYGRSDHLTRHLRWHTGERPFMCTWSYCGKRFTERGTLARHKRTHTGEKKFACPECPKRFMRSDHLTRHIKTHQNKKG
Assay: EMSA
Conditions: tags: MBP fusion
Assay Endpoint: pKd
To interpret pKd, take it as minus log10 of a concentration measured in moles per litre.

So, GGGGCCGGG (dsDNA) DNA 1: GGGGCCGGG DNA 2: CCCGGCCCC ? Its pKd was 7.28
